- ASSAY: Steady-state pharmacokinetics of gemcabene at 300, 600, 900 mg/day in FH patients
- Format: in vivo, human
- ASSAY SETUP: human, oral; 600 mg/day (2× Tablet D), Day 56 steady state, FH patients, plasma, mean, n=8
READOUT NAME: Cmax (µg/mL)
Report the figure in µg/mL without appending any unit label.

query: What value of Cmax has been reported for the following molecule? CC(C)(CCCCOCCCCC(C)(C)C(=O)O)C(=O)O [gemcabene]
result: 149

----------
- ASSAY: Steady-state pharmacokinetics of gemcabene at 300, 600, 900 mg/day in FH patients
- Type: in vivo, human
- ASSAY SETUP: human, plasma, oral; 900 mg/day (3× Tablet D), steady state, FH patients, median, n=7; read-out: Tmax
READOUT NAME: Tmax (h)
Respond with the bare value in h.

query: Bench note: what Tmax did `CC(C)(CCCCOCCCCC(C)(C)C(=O)O)C(=O)O` show?
result: 1.9

----------
- ASSAY: Steady-state pharmacokinetics of gemcabene at 300, 600, 900 mg/day in FH patients
- Format: in vivo, human
- ASSAY SETUP: human, plasma, oral; 300 mg dose level, after 28 daily doses; min-max 1.0-2.0 h; read-out: Median Tmax
READOUT NAME: Tmax (h)
// note: answer is a bare numeric in h

query: Requested field: Tmax. Item: `CC(C)(CCCCOCCCCC(C)(C)C(=O)O)C(=O)O`
result: 1.6

----------
- ASSAY: Steady-state pharmacokinetics of gemcabene at 300, 600, 900 mg/day in FH patients
- Type: in vivo, human
- ASSAY SETUP: human, plasma, oral; 300 mg/day (Tablet D), steady state, FH patients, median, n=8; read-out: Tmax
READOUT NAME: Tmax (h)
Your answer should be a plain number; it is taken to be in h.

query: I am curious: what Tmax value has been reported for CC(C)(CCCCOCCCCC(C)(C)C(=O)O)C(=O)O [gemcabene] ?
result: 1.6

----------
- ASSAY: Steady-state pharmacokinetics of gemcabene at 300, 600, 900 mg/day in FH patients
- Format: in vivo, human
- ASSAY SETUP: human, plasma, oral, 600 mg/day, 600 mg/day (2× Tablet D), steady state, FH patients, mean, n=8; read-out: AUC0-24
READOUT NAME: AUC(0-t)
The reply should consist of the numeric value with the unit placed after it.

query: Which measured AUC(0-t) value corresponds to CC(C)(CCCCOCCCCC(C)(C)C(=O)O)C(=O)O [gemcabene] ?
result: 2680 µg·h/mL

----------
- ASSAY: Steady-state pharmacokinetics of gemcabene at 300, 600, 900 mg/day in FH patients
- Type: in vivo, human
- ASSAY SETUP: human, plasma, oral; 900 mg/day treatment period, Day 28; read-out: trough gemcabene plasma concentration, patient 006-003
READOUT NAME: concentration at 28 day of the 900 mg/day period (ng/mL)
The answer is to be given in ng/mL; state only the numeric part.

query: Requested field: concentration at 28 day of the 900 mg/day period. Item: `CC(C)(CCCCOCCCCC(C)(C)C(=O)O)C(=O)O`
result: 43500

----------
- ASSAY: Steady-state pharmacokinetics of gemcabene at 300, 600, 900 mg/day in FH patients
- Format: in vivo, human
- ASSAY SETUP: human, plasma, oral; 900 mg dose level, after 28 daily doses; min-max 0.98-3.0 h; read-out: Median Tmax
READOUT NAME: Tmax

query: What does the data say about its Tmax? Entry: `CC(C)(CCCCOCCCCC(C)(C)C(=O)O)C(=O)O`
result: 1.9 h
